Hey, just so you know, these numbers are from patent US11078232B2.

test system: BALB/C mouse; assay: MTD (maximum tolerated dose) acute toxicity in mice; format: in vivo; conditions: intravenous, 10 mice per group
Known Number of deaths of a selection of compounds
Reply with just the number.

| COMPOUND | MEASURED_ON | Number of deaths |
| --- | --- | --- |
| CC(NC(=O)C(NC(=O)[C@H](O)[C@H](O)[C@@H](O[C@@H]1O[C@H](CO)[C@H](O)[C@H](O)[C@H]1O)[C@H](O)CO)C(C)C)C(=O)NC(CC(N)=O)C(=O)Nc1ccc(COC(=O)N(C)CCNC(=O)c2cc(Oc3ccc(NC(=O)Nc4ccc(Cl)c(C(F)(F)F)c4)cc3)ccn2)cc1 (some centres unmarked) [Compound S7, Lacto-VAN-PABC-compound a] | BALB/C mouse | 1 |
| CC(NC(=O)C(NC(=O)[C@H](O)[C@H](O)[C@@H](O[C@@H]1O[C@H](CO)[C@H](O)[C@H](O)[C@H]1O)[C@H](O)CO)C(C)C)C(=O)NC(CC(N)=O)C(=O)Nc1ccc(COC(=O)Nc2c(-c3nc4ccc(N5CCN(C)CC5)cc4[nH]3)c(=O)[nH]c3cccc(F)c23)cc1 (some centres unmarked) [Compound S11] | BALB/C mouse | 2 |
| CC(NC(=O)C(NC(=O)[C@H](O)[C@H](O)[C@@H](O[C@@H]1O[C@H](CO)[C@H](O)[C@H](O)[C@H]1O)[C@H](O)CO)C(C)O)C(=O)NC(CC(N)=O)C(=O)Nc1ccc(COC(=O)N2CC(C)(C)c3ccc(NC(=O)c4cccnc4NCc4ccncc4)cc32)cc1 (some centres unmarked) [Compound S18] | BALB/C mouse | 2 |

Provide only the value of recorded Number of deaths for COc1cccc2c1C(=O)c1c(O)c3c(c(O)c1C2=O)C[C@](O)(C(=O)CO)CC3OC1C[C@H](NC(=O)OCc2ccc(NC(=O)C(CC(N)=O)NC(=O)C(C)NC(=O)C(NC(=O)[C@H](O)[C@H](O)[C@@H](O[C@@H]3O[C@H](CO)[C@H](O)[C@H](O)[C@H]3O)[C@H](O)CO)C(C)O)cc2)[C@H](O)[C@H](C)O1 (some centres unmarked) [Compound S15] 1

For the compound CC(NC(=O)C(C)NC(=O)[C@H](O)[C@H](O)[C@@H](O[C@@H]1O[C@H](CO)[C@H](O)[C@H](O)[C@H]1O)[C@H](O)CO)C(=O)NC(CC(N)=O)C(=O)Nc1ccc(COC(=O)N2CC(C)(C)c3ccc(NC(=O)c4cccnc4NCc4ccncc4)cc32)cc1 (some centres unmarked) [Compound S6] , give its measured Number of deaths value. 1

Entry CC(NC(=O)C(NC(=O)[C@H](O)[C@H](O)[C@@H](O[C@@H]1O[C@H](CO)[C@H](O)[C@H](O)[C@H]1O)[C@H](O)CO)C(C)C)C(=O)NC(CC(N)=O)C(=O)Nc1ccc(COC(=O)N2CC(C)(C)c3ccc(NC(=O)c4cccnc4NCc4ccncc4)cc32)cc1 (some centres unmarked) [Compound S12] needs its Number of deaths filled in; supply it. 1

Tell me Number of deaths reported for CNC(=O)c1cc(Oc2ccc(NC(=O)Nc3ccc(Cl)c(C(F)(F)F)c3)cc2)ccn1 [Sorafenib, reference compound] 0

Tell me Number of deaths reported for C[C@H](N=C[C@H](O)[C@@H](O)[C@H](O)[C@H](O)CO)C(=O)N[C@@H](C)C(=O)N[C@@H](CC(N)=O)C(=O)Nc1ccc(COC(=O)N(C)CCNC(=O)c2cc(Oc3ccc(NC(=O)Nc4ccc(Cl)c(C(F)(F)F)c4)cc3)ccn2)cc1 [Compound C4, Glucose-AAN-PABC-Compound a, reference compound] 2
